- Test system: Plasmodium falciparum
- assayComment: Antiplasmodial activity CQ-resistant Plasmodium falciparum W2 infected in human erythrocytes assessed as inhibition of parasite growth measured after 72 hrs by HRP2-ELISA
- Format: functional, organism-based
- conditionDescription: W2, Erythrocyte
Each entry below lists one item and its recorded IC50 value.
recordedMetric: IC50 (nM)

compound | reportedMeasurement
OC[C@@H](Cc1ccccc1)NC[C@@H](O)c1cc(C(F)(F)F)nc2c(C(F)(F)F)cccc12 (single isomer, unassigned) | 82.7
CCNCc1cc(Nc2ccnc3cc(Cl)ccc23)ccc1O | 100
O[C@H](CNCCNC(c1ccccc1)c1ccccc1)c1cc(C(F)(F)F)nc2c(C(F)(F)F)cccc12 | 14.1
O[C@@H](CNCC1CC1)c1cc(C(F)(F)F)nc2c(C(F)(F)F)cccc12 | 15.3

* * *

- assayComment: Selectivity index, ratio of IC50 for human HFF cells to IC50 for antiplasmodial activity against Plasmodium falciparum 3D7 infected in human erythrocytes by HRP2-ELISA
- Assay type: toxicity, cell-based
- conditionDescription: read-out: Ratio IC50
Let's look at some molecules and their measured selectivity ratio.
recordedMetric: selectivity ratio

molecule | recordedMetric | reportedMeasurement
OC[C@H](Cc1ccccc1)NC[C@H](O)c1cc(C(F)(F)F)nc2c(C(F)(F)F)cccc12 (single isomer, unassigned) | selectivity ratio | 718
O[C@H](CNCCNC(c1ccccc1)c1ccccc1)c1cc(C(F)(F)F)nc2c(C(F)(F)F)cccc12 | selectivity ratio | 694
O[C@H](CNCC1CC1)c1cc(C(F)(F)F)nc2c(C(F)(F)F)cccc12 | selectivity ratio | 1430
O[C@H](CNCCN1CCN(C(c2ccccc2)c2ccccc2)CC1)c1cc(C(F)(F)F)nc2c(C(F)(F)F)cccc12 | selectivity ratio | 114
OC[C@H](Cc1ccccc1)NC[C@@H](O)c1cc(C(F)(F)F)nc2c(C(F)(F)F)cccc12 | selectivity ratio | 437
O[C@@H](CNCCCC(F)(F)F)c1cc(C(F)(F)F)nc2c(C(F)(F)F)cccc12 | selectivity ratio | 64
O[C@@H](CNCC1CC1)c1cc(C(F)(F)F)nc2c(C(F)(F)F)cccc12 | selectivity ratio | 2700
O[C@H](CNCCCC(F)(F)F)c1cc(C(F)(F)F)nc2c(C(F)(F)F)cccc12 | selectivity ratio | 2310

* * *

- targetOfAssay: Cytochrome P450 3A4 (Homo sapiens, UniProt P08684)
- Sequence (P08684 whole entry): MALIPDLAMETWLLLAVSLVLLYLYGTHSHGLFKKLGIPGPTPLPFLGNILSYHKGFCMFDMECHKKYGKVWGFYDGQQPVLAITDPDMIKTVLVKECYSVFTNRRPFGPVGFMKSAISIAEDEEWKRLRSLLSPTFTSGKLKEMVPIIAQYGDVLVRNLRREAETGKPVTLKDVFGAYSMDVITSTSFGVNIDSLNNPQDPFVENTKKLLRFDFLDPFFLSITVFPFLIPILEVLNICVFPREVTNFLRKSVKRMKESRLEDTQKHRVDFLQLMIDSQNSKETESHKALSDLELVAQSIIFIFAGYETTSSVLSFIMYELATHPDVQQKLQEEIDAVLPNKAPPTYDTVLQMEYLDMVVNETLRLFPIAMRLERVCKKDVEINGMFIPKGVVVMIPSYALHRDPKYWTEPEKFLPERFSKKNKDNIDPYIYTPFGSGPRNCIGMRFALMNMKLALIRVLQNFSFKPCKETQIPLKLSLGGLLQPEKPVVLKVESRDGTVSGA
- assayComment: Inhibition of CYP3A4 in human liver microsomes assessed as reduction in 6-beta-hydroxy-testosterone formation using testosterone as substrate preincubated for 20 mins in presence of NADPH followed by incubation with substrate for 10 mins by LC-MS/MS analysis
- Assay type: ADME, Microsome

smilesNotation | measureUnit | IC50
COC[C@H](Cc1ccccc1)NC[C@@H](O)c1cc(C(F)(F)F)nc2c(C(F)(F)F)cccc12 | µM | 2.3

* * *

- assayComment: Selectivity index, ratio of IC50 for cytotoxicity against chinese hamster CHO cells to IC50 for antiplasmodial activity against CQ-susceptible Plasmodium falciparum 3D7 by SYBR Green 1 dye based fluorescence assay
- Type: toxicity, cell-based
- conditionDescription: CHO cells versus CQ-susceptible Plasmodium falciparum 3D7, read-out: Ratio IC50
recordedMetric: selectivity ratio

smilesNotation | reportedMeasurement
O[C@@H](CNCCN1CCN(C(c2ccccc2)c2ccccc2)CC1)c1cc(C(F)(F)F)nc2c(C(F)(F)F)cccc12 | 226
